// provenance: patent US20120121691A1

Each record here notes measured Spearman Coef. (ρ), sphingolipid level vs cytotoxicity.
# System: CCRF-CEM
Please give the numeric answer without any surrounding text.

Recorded Spearman Coef. (ρ), sphingolipid level vs cytotoxicity, per entry:
{"columns": ["molecule", "target-or-test-system", "test-result"],
 "data": [
  ["CCCCCCCCCCCCCC=CC(O)C(CO)NC(=O)CCCCCCCCCCCCCCCCCCC (stereo not drawn)", "CCRF-CEM", 0.07],
  ["CCCCCCCCCCCCCCCCCCCCCC(=O)N[C@@H](CO)[C@H](O)CCCCCCCCCCCCCCC", "CCRF-CEM", 0.75]
]}

We next turn to a different molecule, shown below.
## Input Look up Spearman Coef. (ρ), sphingolipid level vs cytotoxicity with CCRF-CEM for this molecule: "CCCCCCCCCCCCCCC[C@@H](O)[C@H](CO)NC(=O)CCCCCCCCCCCCC"
## Output 0.20

----------
Reported Pearson Coef. (r), sphingolipid level vs cytotoxicity, CCRF-CEM.
Please give the numeric answer without any surrounding text.

{"columns": ["compound", "test-result"],
 "data": [
  ["CCCCCCCCCCCCCCCC(=O)N[C@@H](CO)[C@H](O)CCCCCCCCCCCCCCC [C16:0-DHCer]", 0.26],
  ["CCCCCCCC/C=C\\CCCCCCCCCCCCCC(=O)N[C@@H](CO)[C@H](O)CCCCCCCCCCCCCCC [C24:1-DHCer]", "−0.17"],
  ["CCCCCCCCCCCCCCCCCCCCCCCC(=O)N[C@@H](CO)[C@H](O)CCCCCCCCCCCCCCC [C24:0-DHCer]", 0.58],
  ["CCCCCCCCCCCCCC=CC(O)C(CO)NC(=O)CCCCCCCCCCCCCCC (centres unmarked) [C16:0-Cer]", 0.25],
  ["CCCCCCCCCCCCCC=CC(O)C(CO)NC(=O)CCCCCCCCCCCCCCCCCCCCCCC (centres unmarked) [C24:0-Cer]", 0.40]
]}

## Input Look up Pearson Coef. (r), sphingolipid level vs cytotoxicity with CCRF-CEM for this compound: CCCCCCCCC=CCCCCCCCC(=O)NC(CO)C(O)C=CCCCCCCCCCCCCC (centres unmarked) [C18:1-Cer]
## Output 0.11

## Input Look up Pearson Coef. (r), sphingolipid level vs cytotoxicity with CCRF-CEM for this compound: CCCCCCCCC=CCCCCCCCCCCCC(=O)NC(CO)C(O)CCCCCCCCCCCCCCC (centres unmarked) [C22:1-DHCer]
## Output −0.13

## Input Look up Pearson Coef. (r), sphingolipid level vs cytotoxicity with CCRF-CEM for this compound: CCCCCCCCCCCCC/C=C/[C@@H](O)[C@H](CO)NC(=O)CCCCCCCCCCCCC [C14:0-Cer]
## Output 0.03

----------
# Tested on: COG-LL-332
# Type: cell-based, human
Each record here notes measured Pearson Coefficient (r), sphingolipid level vs cytotoxicity.
Please give the numeric answer without any surrounding text.

Recorded Pearson Coefficient (r), sphingolipid level vs cytotoxicity, per entry:
{"columns": ["compound", "test-result"],
 "data": [
  ["CCCCCCCC/C=C\\CCCCCCCCCCCCCC(=O)N[C@@H](CO)[C@H](O)/C=C/CCCCCCCCCCCCC", "−0.07"],
  ["CCCCCCCCCCCCCCC[C@@H](O)[C@H](CO)NC(=O)CCCCCCCCCCCCC", 0.06],
  ["CCCCCCCC/C=C\\CCCCCCCCCCCCCC(=O)N[C@@H](CO)[C@H](O)CCCCCCCCCCCCCCC", 0.14],
  ["CCCCCCCCCCCCCC=CC(O)C(CO)NC(=O)CCCCCCCCCCCCCCCCC (centres unmarked)", "−0.54"],
  ["CCCCCCCCCCCCCC=CC(O)C(CO)NC(=O)CCCCCCCCCCCCCCCCCCCCCCC (centres unmarked)", 0.39],
  ["CCCCCCCCC=CCCCCCCCCCCCC(=O)NC(CO)C(O)CCCCCCCCCCCCCCC (centres unmarked)", 0.07],
  ["CCCCCCCCC=CCCCCCCCC(=O)NC(CO)C(O)C=CCCCCCCCCCCCCC (centres unmarked)", "−0.45"]
]}

We next turn to a different compound, shown below.
## Input Returns the measured Pearson Coefficient (r), sphingolipid level vs cytotoxicity for the input compound. Input: "CCCCCCCCCCCCCCCCCCCCCCCC(=O)N[C@@H](CO)[C@H](O)CCCCCCCCCCCCCCC"
## Output 0.74
